- System: P388 leukemia ip, CD2F1 mice, survival T/C
- EXPERIMENTAL_DETAILS: NCI In Vivo Anticancer Drug Screen. Data for tumor model P388 Leukemia (intraperitoneal) in CD2F1 (CDF1) mice
- CONDITION_SET: endpoint: median survival time; dose: 400.0 mg/kg/injection; schedule: Q01DX009 (ip); vehicle: other; higher = longer survival
Toxic doses and inconclusive results are not listed.
Listing: T/C of selected molecules

{"columns": ["MOLECULE", "T/C"],
 "data": [
  ["CC(=O)N(C)N(Cc1ccc([N+](=O)[O-])cc1)C(C)=O", "89 % of control"],
  ["Cc1ccc(S(=O)(=O)N/N=C/C(N)=O)cc1", "101 % of control"],
  ["COc1cccc(C(=O)O)c1C(=O)O", "103 % of control"],
  ["Cc1[nH]c(=O)[nH]c(=O)c1/C=C/C(=O)NC(CO)CS(=O)Cc1ccccc1 (stereo unspecified)", "93 % of control"],
  ["Brc1cc2c(cc1C=Nc1ccc(OCc3ccccc3)cc1)OCO2", "86 % of control"],
  ["CCCCCCCCCC(=O)CCCCC", "90 % of control"]
]}

---

- Tested on: P388 leukemia ip, CD2F1 mice, survival T/C
- EXPERIMENTAL_DETAILS: NCI In Vivo Anticancer Drug Screen. Data for tumor model P388 Leukemia (intraperitoneal) in CD2F1 (CDF1) mice
- CONDITION_SET: endpoint: median survival time; dose: 50.0 mg/kg/injection; schedule: Q01DX009 (ip); vehicle: distilled water + Tween-80; higher = longer survival
Toxic doses and inconclusive results are not listed.
Listing: T/C of selected molecules

{"columns": ["MOLECULE", "T/C"],
 "data": [
  ["CCC1(O)C(=O)OCc2c1cc(-c1ccc(Cl)cc1)nc2OC (centres undefined)", "99 % of control"],
  ["N#CC1OC(COC(=O)c2ccccc2)C(OC(=O)c2ccccc2)C1OC(=O)c1ccccc1 (centres undefined)", "88 % of control"],
  ["COC(=O)C1=C(C(=O)OC)CCC1", "91 % of control"],
  ["CC(=O)N1CCc2cc([N+](=O)[O-])cc(Br)c21", "91 % of control"]
]}

---

- Test system: P388 leukemia ip, CD2F1 mice, survival T/C
- EXPERIMENTAL_DETAILS: NCI In Vivo Anticancer Drug Screen. Data for tumor model P388 Leukemia (intraperitoneal) in CD2F1 (CDF1) mice
- CONDITION_SET: endpoint: median survival time; dose: 6.25 mg/kg/injection; schedule: Q01DX009 (ip); vehicle: Klucel (hydroxypropylcellulose) (HPC); higher = longer survival
Inconclusive results and toxic doses are left out.

{"columns": ["COMPOUND", "T/C"],
 "data": [
  ["COc1cc(C2c3cc4c(cc3C3OC(=O)C2C3CO)OCO4)cc(OC)c1OC (configuration not stated)", "118 % of control"],
  ["C[N+](C)(C)Cc1ccccc1", "95 % of control"],
  ["CSc1nc2cc(S(=O)(=O)C(F)F)ccc2s1", "94 % of control"],
  ["CCCN1C[C@H](CSC)C[C@@H]2c3cccc4[nH]cc(c34)C[C@H]21", "103 % of control"],
  ["CCCCCCCCCCCCCCCC[N+]1(CC)CCOCC1 (tested in a mixture with another compound)", "113 % of control"],
  ["Nc1ccc(-c2ccc3ccccc3n2)cc1", "101 % of control"],
  ["C[N+](C)(CCCCCCOc1c(Br)cc(Br)cc1Br)Cc1ccc(Br)o1", "93 % of control"]
]}
